- TARGET DESC: T1, rat NK1 receptor (rat, UniProt P14600 1-407)
- T1 construct: whole, on cells; membrane preparations of the transfected cells were used; also called rNK1; rNK-1
- T1 sequence (P14600 whole entry): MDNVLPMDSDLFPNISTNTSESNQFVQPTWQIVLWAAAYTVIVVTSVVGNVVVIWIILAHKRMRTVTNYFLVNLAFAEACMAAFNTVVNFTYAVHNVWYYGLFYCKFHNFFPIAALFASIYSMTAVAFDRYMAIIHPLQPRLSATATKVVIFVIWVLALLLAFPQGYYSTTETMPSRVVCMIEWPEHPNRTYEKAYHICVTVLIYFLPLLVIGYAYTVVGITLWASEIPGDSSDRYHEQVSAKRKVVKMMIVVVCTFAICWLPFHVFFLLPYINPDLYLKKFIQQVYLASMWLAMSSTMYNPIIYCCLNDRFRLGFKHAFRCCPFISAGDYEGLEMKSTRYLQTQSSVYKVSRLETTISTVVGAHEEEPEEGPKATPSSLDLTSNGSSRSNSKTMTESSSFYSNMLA
- PROTOCOL DETAILS: competition vs [3H]Substance P, rNK1 CHO cell membranes
Square brackets hold non-standard residues; d marks the D form. Ends that are not written are not given here. * marks the point of attachment. Glc = O-glucosyl on Ser side chain (Ser(OGlu)/Ser(OGlc)); NH(3,5-(CF3)2-benzyl) = FC(F)(F)c1cc(CN*)cc(C(F)(F)F)c1; Nle = CCCC[C@H](N)C(=O)O
ASSAY READOUT: Ki (nM)

INSERT INTO assay_data (binder, units_text, reported_result) VALUES
  ('Y[dA]GF[Nle]PS(Glc)W-{NH(3,5-(CF3)2-benzyl)} (also called TY041) [TyrDAlaGlyPheNleProSer(OGlu)TrpNHBn(CF3)2]', 'nM', 14),
  ('Y[dA]GF[Nle]PLS(Glc)W-{NH(3,5-(CF3)2-benzyl)} (also called TY055) [TyrDAlaGlyPheNleProLeuSer(OGlu)TrpNHBn(CF3)2]', 'nM', 34);
